Test system: WPMY1-ACTB-RAB5A
Assay: phenotypically active (imaging signature differs from DMSO and reproducible) at any of 0.3-9 uM (binary (1 = active, 0 = inactive)); higher = active
Conditions: treatment time: 24 h
observable: phenotypically active
Answer with the value's number alone.

Before answering, review these 3 worked examples.
phenotypically active for "CCc1nc(-c2cccc(C)c2)c(-c2ccnc(NC(=O)c3ccccc3)c2)s1" is 1

phenotypically active for CN1C(=O)CC(C)(c2ccccc2)C1=O (centres undefined) [methsuximide] is 0

phenotypically active for "COc1cc2nccc(Oc3ccc(NC(=O)NC4CC4)c(Cl)c3)c2cc1C(N)=O" is 1

More entries:
phenotypically active for "COc1cc(C(C)=O)ccc1OCCCN1CCC(c2noc3cc(F)ccc23)CC1" is 0

phenotypically active for CCCN[C@H]1CCc2nc(N)sc2C1 [pramipexole] is 0

phenotypically active for "COc1ccc2c(c1)N(C(C)=O)[C@H]1[C@@H]3CO[C@H](C)[C@@H]4CN5CC[C@]21[C@@H]5C[C@H]34" is 0

phenotypically active for CC(=O)c1ccc(S(=O)(=O)NC(=O)NC2CCCCC2)cc1 [acetohexamide] is 0

phenotypically active for "C[C@H](CS)C(=O)N1CCC[C@H]1C(=O)O" is 0

phenotypically active for "CC(C)(C)c1cc(C(=O)/C=C/c2ccc(C(=O)O)cc2)cc(C(C)(C)C)c1" is 1
